- system.tested: HLA-A*02:01 (Homo sapiens, UniProt P04439, D140Y/D185E/D98H/E176V/E277Q/G131W/G231S/I119V/I121R/I166T/I218V/L300P/L318F/N151K/N90K/P208A/P217A/Q86G/Q94H/R138H/R169H/T345S)
- assay.notes: MHC binding assay (UV-ligand exchange, β2m ELISA, peptide exchange yield)
- assay.setup: MHC class I binding score; binding to HLA-A*02:01 ranged by peptide exchange yield (UV-ligand exchange, β2m ELISA)
- Description: Candidate peptides for T cell based therapies according to the present invention were further tested for their MHC binding capacity (affinity). The individual peptide-MHC complexes were produced by UV-ligand exchange, where a UV-sensitive peptide is cleaved upon UV-irradiation, and exchanged with the peptide of interest as analyzed. Only peptide candidates that can effectively bind and stabilize the peptide-receptive MHC molecules prevent dissociation of the MHC complexes. […]
value.type: Peptide exchange

> print(dat)
                                   substance          test.value
 1  134 (YLQELIFSV; listed as Homo sapiens) [compound 134]  ″+++″ (≧50% = +++)
 2  519 (GLLHLTLLL; listed as Homo sapiens) [compound 519]  ″+++″ (≧50% = +++)
 3  283 (ALYIGDGYVIHLA; listed as Homo sapiens) [compound 283]  ″+++″ (≧50% = +++)
 4  35 (KINDTIYEV; listed as Homo sapiens) [compound 35]  ″+++″ (≧50% = +++)
 5  515 (LLQELVLFL; listed as Homo sapiens) [compound 515]  ″+++″ (≧50% = +++)
 6  341 (SQIALNEKLVNL; listed as Homo sapiens) [compound 341]  ″+++″ (≧50% = +++)
 7  443 (GLWEIENNPTV; listed as Homo sapiens) [compound 443]  ″+++″ (≧50% = +++)
 8  182 (MLLEAPGIFL; listed as Homo sapiens) [compound 182]  ″+++″ (≧50% = +++)
 9  31 (YLAPELFVNV; listed as Homo sapiens) [compound 31]    ″++″ (≧20% = ++)
10  542 (RVWDISTVSSV; listed as Homo sapiens) [compound 542]  ″+++″ (≧50% = +++)
11  271 (LVYPLELYPA; listed as Homo sapiens) [compound 271]  ″+++″ (≧50% = +++)
12  591 (SMAELDIKL; listed as Homo sapiens) [compound 591]  ″+++″ (≧50% = +++)
13  45 (SLWQDIPDV; listed as Homo sapiens) [compound 45]  ″+++″ (≧50% = +++)
14  396 (ALLPDLPAL; listed as Homo sapiens) [compound 396]  ″+++″ (≧50% = +++)
15  481 (GLIEDYEALL; listed as Homo sapiens) [compound 481]  ″+++″ (≧50% = +++)
16  154 (ALDDGTPAL; listed as Homo sapiens) [compound 154]    ″++″ (≧20% = ++)
17  18 (YLVAKLVEV; listed as Homo sapiens) [compound 18]    ″++″ (≧20% = ++)
18  343 (SLLEVNEESTV; listed as Homo sapiens) [compound 343]  ″+++″ (≧50% = +++)
19  448 (NLLETKLQL; listed as Homo sapiens) [compound 448]  ″+++″ (≧50% = +++)

---

- system.tested: HLA-A*02:01 (Homo sapiens, UniProt P04439, D140Y/D185E/D98H/E176V/E277Q/G131W/G231S/I119V/I121R/I166T/I218V/L300P/L318F/N151K/N90K/P208A/P217A/Q86G/Q94H/R138H/R169H/T345S)
- assay.notes: MHC binding assay (UV-ligand exchange, β2m ELISA, peptide exchange yield)
- assay.setup: MHC class I binding score; binding to HLA-A*02:01 ranged by peptide exchange yield (UV-ligand exchange, β2m ELISA)
- Description: Candidate peptides for T cell based therapies according to the present invention were further tested for their MHC binding capacity (affinity). The individual peptide-MHC complexes were produced by UV-ligand exchange, where a UV-sensitive peptide is cleaved upon UV-irradiation, and exchanged with the peptide of interest as analyzed. Only peptide candidates that can effectively bind and stabilize the peptide-receptive MHC molecules prevent dissociation of the MHC complexes. […]
value.type: Peptide exchange

> print(dat)
                                   substance        value.type            test.value
 1  340 (ALLSMTFPL; listed as Homo sapiens) [compound 340]  Peptide exchange  ″++++″ (≧75% = ++++)
 2  572 (ALADLIEKELSV; listed as Homo sapiens) [compound 572]  Peptide exchange    ″+++″ (≧50% = +++)
 3  403 (KLYDRILRV; listed as Homo sapiens) [compound 403]  Peptide exchange      ″++″ (≧20% = ++)
 4  598 (FLFPHSVLV; listed as Homo sapiens) [compound 598]  Peptide exchange    ″+++″ (≧50% = +++)
 5  392 (ALLHPQGFEV; listed as Homo sapiens) [compound 392]  Peptide exchange      ″++″ (≧20% = ++)
 6  365 (YVIDQGETDVYV; listed as Homo sapiens) [compound 365]  Peptide exchange    ″+++″ (≧50% = +++)
 7  264 (SLQEQLHSV; listed as Homo sapiens) [compound 264]  Peptide exchange    ″+++″ (≧50% = +++)
 8  505 (SLAPGDVVRQV; listed as Homo sapiens) [compound 505]  Peptide exchange      ″++″ (≧20% = ++)
 9  80 (FLYDNLVESL; listed as Homo sapiens) [compound 80]  Peptide exchange      ″++″ (≧20% = ++)
10  39 (SVAPNLPAV; listed as Homo sapiens) [compound 39]  Peptide exchange    ″+++″ (≧50% = +++)
11  371 (FLQAHLHTA; listed as Homo sapiens) [compound 371]  Peptide exchange  ″++++″ (≧75% = ++++)
12  77 (ILVEADGAWVV; listed as Homo sapiens) [compound 77]  Peptide exchange  ″++++″ (≧75% = ++++)
13  428 (KLGHTDILVGV; listed as Homo sapiens) [compound 428]  Peptide exchange      ″++″ (≧20% = ++)
14  516 (AVGPASILKEV; listed as Homo sapiens) [compound 516]  Peptide exchange      ″++″ (≧20% = ++)
15  357 (SMHDLVLQV; listed as Homo sapiens) [compound 357]  Peptide exchange    ″+++″ (≧50% = +++)
16  407 (YLMDLINFL; listed as Homo sapiens) [compound 407]  Peptide exchange    ″+++″ (≧50% = +++)
17  200 (LLFGSVQEV; listed as Homo sapiens) [compound 200]  Peptide exchange    ″+++″ (≧50% = +++)
18  574 (YLLQEPPRTV; listed as Homo sapiens) [compound 574]  Peptide exchange      ″++″ (≧20% = ++)
19  139 (SVMEVNSGIYRV; listed as Homo sapiens) [compound 139]  Peptide exchange    ″+++″ (≧50% = +++)
20  243 (LLLNELPSV; listed as Homo sapiens) [compound 243]  Peptide exchange    ″+++″ (≧50% = +++)
21  499 (KIFDIDEAEEGV; listed as Homo sapiens) [compound 499]  Peptide exchange      ″++″ (≧20% = ++)
22  248 (FLFPNQYVDV; listed as Homo sapiens) [compound 248]  Peptide exchange    ″+++″ (≧50% = +++)
23  73 (NIFDLQIYV; listed as Homo sapiens) [compound 73]  Peptide exchange    ″+++″ (≧50% = +++)
24  281 (ILRESTEEL; listed as Homo sapiens) [compound 281]  Peptide exchange    ″+++″ (≧50% = +++)
25  383 (ALLELENSVTL; listed as Homo sapiens) [compound 383]  Peptide exchange    ″+++″ (≧50% = +++)
26  22 (IMEENPGIFAV; listed as Homo sapiens) [compound 22]  Peptide exchange    ″+++″ (≧50% = +++)
27  498 (KLWTGGLDNTV; listed as Homo sapiens) [compound 498]  Peptide exchange    ″+++″ (≧50% = +++)
28  141 (YLDFSNNRL; listed as Homo sapiens) [compound 141]  Peptide exchange      ″++″ (≧20% = ++)
29  46 (ILTEENIHL; listed as Homo sapiens) [compound 46]  Peptide exchange    ″+++″ (≧50% = +++)
30  497 (GLLEKLTAI; listed as Homo sapiens) [compound 497]  Peptide exchange    ″+++″ (≧50% = +++)
31  160 (FLFDEEIEQI; listed as Homo sapiens) [compound 160]  Peptide exchange    ″+++″ (≧50% = +++)
32  493 (GLLGEKTQDLIGV; listed as Homo sapiens) [compound 493]  Peptide exchange    ″+++″ (≧50% = +++)
33  6 (VLVSDGVHSV; listed as Homo sapiens) [compound 6]  Peptide exchange    ″+++″ (≧50% = +++)
34  585 (ALWDLAADKQTL; listed as Homo sapiens) [compound 585]  Peptide exchange  ″++++″ (≧75% = ++++)
35  620 (KLLNKIYEA; listed as Homo sapiens) [compound 620]  Peptide exchange  ″++++″ (≧75% = ++++)
36  429 (GLVNDLARV; listed as Homo sapiens) [compound 429]  Peptide exchange      ″++″ (≧20% = ++)
37  447 (QLVPALAKV; listed as Homo sapiens) [compound 447]  Peptide exchange      ″++″ (≧20% = ++)
